Documented IC50 across a set of compounds
# Test system: A673 cells
# PROTOCOL DESCRIPTION: Cytotoxicity in A673 cells (Cell Titer Glo viability)
# Format: cell-based
# MEASUREMENT CONDITIONS: Homo sapiens, A673; read-out: Cellular Potency IC50 (nM) (in A673 cells)
Numbers only here, please. The scale is nM.

A selection of reference data follows.
In [3]: df
Out[3]:
                                   compound  measured_parameter  value_unit  numeric_readout
0  CC(C)c1cnn2c(NCc3ccc(-c4ccccc4)cc3)cc(NC[C@H]3CCNC[C@@H]3O)nc12                IC50          nM              6.3
1  O[C@H]1CNCC[C@@H]1CNc1cc(NCc2ccc(-c3ncccn3)cc2F)n2ncc(C3CC3)c2n1                IC50          nM              2.6
2  c1ccc(-c2ccc(CNc3cc(NCC4CCNCC4)nc4c(C5CC5)cnn34)cc2)nc1                IC50          nM             20.2

Exam item: So what's the measured IC50 for this one? c1ccc(-c2ccc(CNc3cc(NC[C@H]4CNCCO4)nc4c(C5CC5)cnn34)cc2)nc1
Marked response: 51.5

Exam item: # repeat for N#Cc1cnn2c(NCc3ccc(-c4ccccn4)cc3)cc(N[C@H]3CCNC3)nc12
Marked response: 0.9

Exam item: Thanks! And O[C@H]1CNCC[C@@H]1CNc1cc(NCc2ccc(-c3ccccn3)cc2)n2ncc(C3CC3)c2n1 ?
Marked response: 3.5

Exam item: Next compound: c1ccc(-c2ccc(CNc3cc(OC4CNC4)nc4c(C5CC5)cnn34)cc2)nc1
Marked response: 6.9

Exam item: Another compound: F[C@@H]1CNC[C@H]1Oc1cc(NCc2ccc(-c3ccccn3)cc2)n2ncc(C3CC3)c2n1
Marked response: 19.2

Exam item: Same question for c1ccc(-c2ccc(CNc3cc(N4CC5(CCNCC5)C4)nc4c(C5CC5)cnn34)cc2)nc1 please.
Marked response: 232

Exam item: Another compound: O[C@H]1CNCC[C@@H]1CNc1cc(NCc2ccc(-c3ccc(F)cn3)cc2)n2ncc(C3CC3)c2n1
Marked response: 52.4

Exam item: And OC1CCN(c2cc(NCc3ccc(-c4ccccn4)cc3)n3ncc(C4CC4)c3n2)CC1 ?
Marked response: 44.8

Exam item: Now the same for CC(=O)N1CCC(CNc2cc(NCc3ccc(-c4ccccn4)cc3)n3ncc(C4CC4)c3n2)CC1
Marked response: 305

Exam item: Would you kindly repeat that for c1ccc(-c2ccc(CNc3cc(O[C@@H]4CCCNC4)nc4c(C5CC5)cnn34)cc2)nc1 ?
Marked response: 5.3

Exam item: // next record O=C1C[C@H](Nc2cc(NCc3ccc(-c4ccccn4)cc3)n3ncc(C4CC4)c3n2)CN1
Marked response: 5.7

Exam item: Also c1cnn(-c2ccc(CNc3cc(N[C@H]4CCNC4)nc4c(C5CC5)cnn34)cc2)c1 ?
Marked response: 7.6

Exam item: Same again, this time with CCc1cnn2c(NCc3ccc(-c4ccccc4)cc3F)cc(NC[C@H]3CCNC[C@@H]3O)nc12
Marked response: 10.5

Exam item: What do you get for c1ccc(-c2ccc(CNc3cc(N4CCNC5(CC5)C4)nc4c(C5CC5)cnn34)cc2)nc1 ?
Marked response: 7.5

Exam item: Can you handle c1ccc(-c2ccc(CNc3cc(N4CCNCC4)nc4c(C5CC5)cnn34)cc2)nc1 next?
Marked response: 6.2

Exam item: For c1cnn(-c2ccc(CNc3cc(N[C@H]4CCCNC4)nc4c(C5CC5)cnn34)cc2)c1 then?
Marked response: 1.2

Exam item: Lookup c1ccc(-c2ccc(CNc3cc(NC4CCNCC4)nc4c(C5CC5)cnn34)cc2)nc1
Marked response: 6.8

Exam item: Try CC(C)c1cnn2c(NCc3ccc(-c4ncccn4)cc3)cc(NC[C@H]3CCNC[C@@H]3O)nc12 next.
Marked response: 1.7

Exam item: What would you report for c1ccc(-c2ccc(CNc3cc(C4CCNCC4)nc4c(C5CC5)cnn34)cc2)nc1 ?
Marked response: 1.5

Exam item: One more compound: FC1(F)CNCCC1CNc1cc(NCc2ccc(-c3ccccn3)cc2)n2ncc(C3CC3)c2n1 (centres unmarked)
Marked response: 17.3
